# experimental.system: 5-hydroxytryptamine receptor 1A (Homo sapiens); further: assay procedure not described here
# Sequence (P08908 whole entry): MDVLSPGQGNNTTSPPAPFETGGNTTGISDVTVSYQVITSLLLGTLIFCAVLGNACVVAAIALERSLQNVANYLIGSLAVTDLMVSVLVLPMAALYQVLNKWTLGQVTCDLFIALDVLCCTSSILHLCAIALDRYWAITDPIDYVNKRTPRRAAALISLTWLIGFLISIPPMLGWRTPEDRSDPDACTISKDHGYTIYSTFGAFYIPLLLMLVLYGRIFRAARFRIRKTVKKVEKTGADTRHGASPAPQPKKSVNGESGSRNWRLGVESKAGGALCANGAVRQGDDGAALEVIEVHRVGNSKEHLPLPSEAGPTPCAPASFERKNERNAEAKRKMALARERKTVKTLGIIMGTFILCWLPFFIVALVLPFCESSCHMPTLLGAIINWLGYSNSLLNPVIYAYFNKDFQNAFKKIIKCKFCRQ
# Format: functional, cell-based
Known AC50 of a selection of compounds

CN(c1nccc(=O)[nH]1)C1CCN(c2nc3ccccc3n2Cc2ccc(F)cc2)CC1 :: > 30 µM
CC[N+]1(C)CCCC(OC(=O)C(O)(c2ccccc2)c2ccccc2)C1 (centres undefined) [PIPENZOLATE] :: > 30 µM
CCCCNc1ccc(C(=O)OCCN(C)C)cc1 :: > 10 µM

Shift focus to the following entry.
-- ask Suppose we examine the compound C[C@@H]1CCC[C@H](C)N1NC(=O)c1ccc(Cl)c(S(N)(=O)=O)c1 [CLOPAMIDE] ; what AC50 value has been reported?
-- reply > 30 µM
